- Test system: DMPK
- Method summary: DMPK knockdown by anti-TfR1 antibody-oligonucleotide conjugates in NHP myotubes
- Format: cell-based, non-human primate
- Conditions: conjugate with control DMPK-ASO, 72 hours, concentration not stated (0.5, 5, 50 nM tested)
Mark Criterion met only for % knockdown of DMPK in NHP cells using Antibody-DMPK ASO conjugate values smaller than 50%; exact matches and larger values are Criterion not met.

Use the examples below as a reference point.
>>> label("3-A4 (antibody, V domains shown) VH: EVQLQQSGAELVRPGASVKLSCTASGFNIKDDYMYWVKQRPEQGLEWIGWIDPENGDTEYASKFQDKATVTADTSSNTAYLQLSSLTSEDTAVYYCTLWLRRGLDYWGQGTSVTVSS VL: DIVMTQAAPSVPVTPGESVSISCRSSKSLLHSNGYTYLFWFLQRPGQSPQLLIYRMSNLASGVPDRFSGSGSGTAFTLRISRVEAEDVGVYYCMQHLEYPFTFGGGTKLEIK")
"Criterion not met"
>>> label("6-D3 (antibody, V domains shown) VH: QVQLQQPGAELVKPGASVKMSCKASGYTFTRHWITWVKQRPGQGLEWIGDIYPGSGRTNYNEKFKSTATLTVDTSSSTAYMQLSSLTSEDSAVYYCARDGYLYINYFDYWGQGTTLTVSS VL: ENVLTQSPAIMSASPGEKVTMTCSASSSVSFMHWFQQKSSTSPKLWIYDTSKLASGVPGRFSGSGSGSSYSLTISSMAAEDVATYYCFQGSGYPYTFGGGTKLEIK")
"Criterion met"
>>> label("9-K23 (antibody, V domains shown) VH: QVTLKESGPGMLQPSQTLSLTCSFSGFSLNTYDVGVGWIRQPSGKGLEWLANIWWNDDKYYNSALKSRLTISKDTSNNQVFLKISSVDTADTATYYCTLYSYDGGFAYWGQGTLVTVSA VL: QIVLTQSPAIMSASLGERVTMTCTASSSVSSSYLHWYQQKPGSSPKLWIYSTSNLASGVPARFSGSGSGTSYSLTISSMEAEDAATYYCHQYHRSPYTFGGGTKLEIK")
"Criterion met"
>>> label("4-C5 (antibody, V domains shown) VH: QVQLQQSGAELMKPGASVKISCKATGYTFSNYWIEWVKQRPGHGLEWIGEILPGSGSTNYNENFKGKATFTADTSSNTAYMQLSSLTSEDSAVYYCARRGAYGNFHYWGQGTTLTVSS VL: EIVLTQSPALMAASPGEKVTITCSVSSSISSSNLHWYQQKSETSPKPWIYGTSNLASGVPVRFSGSGSGTSYSLTISSMEAEDAATYYCQQWRSYPYTFGGGTKLEIK")
"Criterion met"

Lab note: next molecule to report on.
In the record for 2-H19 (antibody, V domains shown) VH: EVQLQQSGAELVRSGASVKLSCTASGFNIKDYYMHWVKQRPEQGLEWIGWIDPESGDTEYAPKFQGRATMTADTSSNTAYMQLSSLTSEDTAVYYCYGHDYRVDCWGQGTSVTVSS VL: DVVMTQTPLSLPVSLGDQASISCRSSQSLVHSNGNTYLHWYLQKPGQSPKLLIYKVSNRFSGVPDRFSGSGSGTDFTLKISRVEAEDLGVYFCSQSTHIPWTFGGGTKLEIK , is % knockdown of DMPK in NHP cells using Antibody-DMPK ASO conjugate less than 50%?
Criterion met
